Origin of the recorded values: patent US7157452B2

- study.system: purified recombinant human PARP (Homo sapiens, UniProt P09874)
- Construct: purchased Trevigan (Gaithersburg, Md.)
- Sequence (P09874 whole entry): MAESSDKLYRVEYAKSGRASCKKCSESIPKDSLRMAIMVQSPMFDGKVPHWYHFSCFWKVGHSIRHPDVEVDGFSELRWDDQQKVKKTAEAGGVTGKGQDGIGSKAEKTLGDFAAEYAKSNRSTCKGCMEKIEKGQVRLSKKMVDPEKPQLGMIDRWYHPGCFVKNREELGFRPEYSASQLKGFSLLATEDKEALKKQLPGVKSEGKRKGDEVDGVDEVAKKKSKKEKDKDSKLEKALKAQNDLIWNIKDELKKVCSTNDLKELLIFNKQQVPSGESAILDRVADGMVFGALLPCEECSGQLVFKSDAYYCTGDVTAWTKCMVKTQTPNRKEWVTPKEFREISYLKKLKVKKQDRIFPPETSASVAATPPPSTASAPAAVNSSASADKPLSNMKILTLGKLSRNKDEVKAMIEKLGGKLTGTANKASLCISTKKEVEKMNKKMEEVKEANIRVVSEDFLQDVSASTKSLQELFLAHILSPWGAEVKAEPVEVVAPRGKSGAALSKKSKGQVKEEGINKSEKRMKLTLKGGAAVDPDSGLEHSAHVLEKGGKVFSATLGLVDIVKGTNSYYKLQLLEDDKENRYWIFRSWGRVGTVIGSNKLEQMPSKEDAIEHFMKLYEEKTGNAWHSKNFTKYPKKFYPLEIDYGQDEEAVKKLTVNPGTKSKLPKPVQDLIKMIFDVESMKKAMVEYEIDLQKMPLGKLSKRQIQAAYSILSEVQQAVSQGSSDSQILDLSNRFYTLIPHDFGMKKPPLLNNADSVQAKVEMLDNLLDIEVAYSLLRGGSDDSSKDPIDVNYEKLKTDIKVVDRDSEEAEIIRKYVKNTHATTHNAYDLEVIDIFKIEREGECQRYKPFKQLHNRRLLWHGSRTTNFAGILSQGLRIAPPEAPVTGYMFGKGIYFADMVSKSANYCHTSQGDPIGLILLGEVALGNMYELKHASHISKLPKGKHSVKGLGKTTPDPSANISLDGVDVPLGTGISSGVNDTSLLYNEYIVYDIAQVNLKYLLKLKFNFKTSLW
- assay.explanation: PARP enzyme assay with [3H]NAD, scintillation counting
- Type: biochemical
- run.conditions: Table III; read-out: approximate IC50
Could you please report measured IC50 for the items listed next?
Form field: result (number plus unit)

Endpoint output: IC50 of `CN(C)CCCN(C)S(=O)(=O)c1ccc2[nH]c(=O)c3cccc4c3c2c1C4` . Value?
110 nM

Return reported IC50; argument: `CN(C)CCN1CCN(CC(=O)Nc2ccc3[nH]c(=O)c4cccc5c4c3c2C5)CC1`
115 nM

Recorded IC50 of O=c1[nH]c2ccc(S(=O)(=O)N3CCN(CCN4CCCC4)CC3)c3c2c2c(cccc12)C3 [Example 30] , please.
264 nM

Quick one: IC50 for O=c1[nH]c2ccc(S(=O)(=O)N3CCN(CCN4CCCC4)CC3)c3c2c2c(cccc12)C3 [Example 22] ?
115 nM

Bench note: what IC50 did `O=c1[nH]c2ccc(S(=O)(=O)NCCc3ccccn3)c3c2c2c(cccc12)C3` show?
114 nM

// lookup IC50 for `O=c1[nH]c2ccc(S(=O)(=O)N3CCN(CCN4CCCCC4)CC3)c3c2c2c(cccc12)C3`
314 nM

Quick one: IC50 for `CN1CCC(N2CCN(CC(=O)Nc3ccc4[nH]c(=O)c5cccc6c5c4c3C6)CC2)CC1` ?
119 nM

Tell me the measured IC50 of `CCN(CC)CCCNCC(=O)Nc1ccc2[nH]c(=O)c3cccc4c3c2c1C4` , please.
118 nM

* * *

- study.system: purified recombinant human PARP (Homo sapiens, UniProt P09874)
- Construct: purchased Trevigan (Gaithersburg, Md.)
- assay.explanation: PARP enzyme assay with [3H]NAD, scintillation counting
- Type: biochemical
- run.conditions: examples table; read-out: IC50
Exam item: assign criterion met to entries whose IC50 is below 0.2 µM and criterion not met to entries at or above 0.2 µM. Note that a value of exactly 0.2 µM receives criterion not met.

Lab note: confirm whether the reported IC50 for this compound is below 0.2 µM, equality not counting. compound: CN1CCC(N2CCN(S(=O)(=O)c3ccc4[nH]c(=O)c5cccc6c5c4c3C6)CC2)CC1 [Example 23]
criterion met

Bench note: check whether CCN(CC)CCCNS(=O)(=O)c1ccc2[nH]c(=O)c3cccc4c3c2c1C4 [Example 14] shows IC50 below 0.2 µM
criterion met

Bench note: check whether CN1CCCC(CN2CCN(CC(=O)Nc3ccc4[nH]c(=O)c5cccc6c5c4c3C6)CC2)C1 (stereo not drawn) [Example 51] shows IC50 below 0.2 µM
criterion met

Here's an entry: CC(=O)N1CCN(CC(=O)Nc2ccc3[nH]c(=O)c4cccc5c4c3c2C5)CC1 [Example 32] . Is its IC50 below 0.2 µM?
criterion met

Please determine if O=C(CN1CCN(CCN2CCCC2)CC1)Nc1ccc2[nH]c(=O)c3cccc4c3c2c1C4 [Example 58] is below 0.2 µM in terms of IC50.
criterion not met

* * *

- study.system: purified recombinant human PARP (Homo sapiens, UniProt P09874)
- Construct: purchased Trevigan (Gaithersburg, Md.)
- assay.explanation: PARP enzyme assay with [3H]NAD, scintillation counting
- Type: biochemical
- run.conditions: Table III; read-out: approximate IC50
test.readout: pIC50
Please treat pIC50 as minus the base-10 logarithm of the molar concentration.

For purified recombinant human PARP (Homo sapiens, UniProt P09874), provide pIC50 of `O=c1[nH]c2ccc(S(=O)(=O)N3CCN(c4ccc(F)cc4)CC3)c3c2c2c(cccc12)C3` please.
6.47

Recall the recorded pIC50 for O=c1[nH]c2ccc(S(=O)(=O)N3CCN(CC4CCCO4)CC3)c3c2c2c(cccc12)C3 (stereo not shown) with purified recombinant human PARP (Homo sapiens, UniProt P09874) and state it.
6.61

# returns recorded pIC50 (system: purified recombinant human PARP (Homo sapiens, UniProt P09874)) for CN1CCN(CCCNS(=O)(=O)c2ccc3[nH]c(=O)c4cccc5c4c3c2C5)CC1 [Example 19]
7.28

State its pIC50 on purified recombinant human PARP (Homo sapiens, UniProt P09874): `O=C(CNCCCc1ccccc1)Nc1ccc2[nH]c(=O)c3cccc4c3c2c1C4`
6.73
